Test system: secretion of IL6 by OCI-LY3 ABC-DLBCL cells
Method Notes: Human IL6 Mesoscale assay (OCI-LY3)
Type: cell-based
Run Conditions: 24 h incubation, IL6 in supernatant
Quantity Measured: IC50 (nM)

> print(dat)
                                   molecule  observed.value
1  COC(C)c1c(NC(=O)Nc2cnc(-n3nccn3)c(Cl)c2)cnc(C)c1Br (stereo not drawn) [Co. 40]             100
2  CO[C@H](C)c1c(NC(=O)Nc2cnc(-n3nccn3)c(C(F)(F)F)c2)cnc(C)c1Br [Co. 58]             760
3  CO[C@H](C)c1c(NC(=O)Nc2cnc(C3CC3)c(C(F)(F)F)c2)cnc(C)c1Br [Co. 52]            1450
4  COC(C)c1c(NC(=O)Nc2cnc(-n3ncc(C(C)O)n3)c(Cl)c2)cnc(C)c1C#N (single isomer, unassigned) [Co. 114]             400

(1) COc1nc(-n2nccn2)c(Cl)cc1NC(=O)Nc1cnc(C)c(Cl)c1[C@H](C)OC [Co. 83]
(2) C=C(C)c1cncc(NC(=O)Nc2cnc(-n3nccn3)c(Cl)c2)c1C(C)OC (racemic) [Co. 29]
Input line: I need your help: which of the pair 1 , 2 has higher IC50? Refer to your chosen item by its label in the answer.
Output line: 2
(2: 1820 nM, 1: 500 nM)

(A) COC(C)c1c(C#N)cncc1NC(=O)Nc1cnc(-n2nccn2)c(Cl)c1 (stereo not drawn) [Co. 25]
(B) COC(C)c1cc(C)ncc1NC(=O)Nc1cnc(-n2nccn2)c(Cl)c1 (racemic) [Co. 106]
Input line: I need your help: which of the pair A , B has higher IC50? Refer to your chosen item by its label in the answer.
Output line: B

(I) COC(C)c1c(NC(=O)Nc2cnc(-n3nccn3)c(Cl)c2)cncc1C1CC1 (racemic) [Co. 28]
(II) COc1ncc(NC(=O)Nc2cnc(C)c(Br)c2C(C)OC)cc1C#N (single isomer, unassigned) [Co. 98]
(III) COC(C)c1c(Br)cncc1NC(=O)Nc1cnc(-n2nccn2)c(Cl)c1 (single isomer, unassigned) [Co. 18]
(IV) CO[C@@H](C)c1c(C#N)cncc1NC(=O)Nc1cnc(-n2nccn2)c(Cl)c1 [Co. 26]
(V) COc1cncc(NC(=O)Nc2cnc(-n3nccn3)c(C(F)(F)F)c2)c1[C@@H](C)OC [Co. 124]
Input line: Arrange these 5 molecules in increasing order of IC50. Reply format: the labels, ordered as requested.
Output line: III, V, IV, I, II
(III: 100 nM, V: 150 nM, IV: 260 nM, I: 1950 nM, II: 5750 nM)

(1) CO[C@@H](C)c1c(NC(=O)Nc2cnc(-n3nccn3)c(Cl)c2)cnc(C)c1C#N [Co. 61]
(2) CO[C@H](C)c1c(NC(=O)Nc2cnc(OC(F)F)c(Cl)c2)cnc(C)c1C#N [Co. 71]
Input line: Field: lower IC50 | Options: 1 / 2 Refer to your chosen item by its label in the answer.
Output line: 1

###

System: secretion of IL6 by OCI-LY3 ABC-DLBCL cells
Method Notes: Human IL6 Mesoscale assay (OCI-LY3)
Assay type: cell-based
Run Conditions: 24 h incubation, IL6 in supernatant
Quantity Measured: IC50 (nM)

> print(dat)
                                   compound  quantity.measured  observed.value
1  COc1nc(-n2nccn2)c(Cl)cc1NC(=O)Nc1cnc(C)c(Br)c1[C@@H](C)OC               IC50             100

(I) CO[C@H](C)c1c(NC(=O)Nc2cnc(-n3nccn3)c(Cl)c2)cnc(C)c1Br
(II) COc1ncc(NC(=O)Nc2cnc(C)c(Br)c2[C@H](C)OC)cc1C#N
(III) CO[C@@H](C)c1c(NC(=O)Nc2cnc(-n3nccn3)c(C(F)(F)F)c2)cnc(C)c1Cl
Input line: // sort entries: IC50, high to low Reply format: the labels, ordered as requested.
Output line: II, III, I
